Attribute: inhibition at 1 µM
assayed_target: hDGAT1 (Homo sapiens, UniProt O75907)
Construct: made in house; host or cells: Sf9 insect cells (baculovirus); microsomal fraction
Sequence (O75907 whole entry): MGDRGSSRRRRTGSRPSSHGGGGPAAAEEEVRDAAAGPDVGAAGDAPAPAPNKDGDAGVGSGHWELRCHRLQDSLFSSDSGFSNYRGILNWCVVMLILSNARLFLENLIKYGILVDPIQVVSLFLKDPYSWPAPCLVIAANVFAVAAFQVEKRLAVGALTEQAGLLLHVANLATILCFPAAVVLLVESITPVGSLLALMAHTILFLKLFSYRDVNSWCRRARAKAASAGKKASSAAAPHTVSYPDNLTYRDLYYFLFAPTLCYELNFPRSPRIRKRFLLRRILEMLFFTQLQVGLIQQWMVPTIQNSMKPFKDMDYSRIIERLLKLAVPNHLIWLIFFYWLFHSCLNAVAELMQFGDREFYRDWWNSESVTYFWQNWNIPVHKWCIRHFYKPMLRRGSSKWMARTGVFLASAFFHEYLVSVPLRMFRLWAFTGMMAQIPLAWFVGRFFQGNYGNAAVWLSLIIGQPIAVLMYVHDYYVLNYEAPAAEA
test_summary: In-vitro DGAT1 assay with hDGAT1 microsomes from Sf9 cells (14C oleoyl CoA, scintillation counting)
Format: biochemical
experimental_conditions: read-out: Percentage inhibition of hDGAT1

Here is how some compounds turned out for inhibition at 1 µM.
# compound, property, observed_value
data = [
    ("CC(C)(C)OC(=O)N1CCC(c2ncc(-c3ccc(NC(=O)Nc4c(F)cc(F)cc4F)cc3)s2)CC1", "inhibition at 1 µM", "20 to 50%"),
    ("Cc1ccc(NC(=O)Nc2ccc(-c3cnc(C4CCC(C(=O)O)CC4)s3)cc2)cc1 (centres unmarked)", "inhibition at 1 µM", "> 50%"),
    ("O=C(Nc1ccc(-c2cnc(C3CCC(C(=O)O)CC3)s2)cc1)Nc1ccc(F)cc1F (centres unmarked)", "inhibition at 1 µM", "> 50%"),
]

The value of inhibition at 1 µM measured for the compound O=C(Nc1ccc(-c2cnc(C3CCN(S(=O)(=O)C(F)(F)F)CC3)s2)cc1)Nc1cc(F)c(F)cc1F turned out to be 20 to 50%

The compound CC(C)(C)OC(=O)N1CCC(c2ncc(-c3ccc(NC(=O)Nc4ccc(F)cc4F)cc3)s2)CC1 showed inhibition at 1 µM equal to 20 to 50%

Entry O=C(O)CCCc1ncc(-c2ccc(NC(=O)Nc3ccccc3Cl)cc2)s1 , inhibition at 1 µM reported as > 50%

Just so you know, measured inhibition at 1 µM for CC(C)(C)c1ccc(C(=O)Nc2ccc(-c3nnc(CCCC(=O)O)s3)cc2)cc1 came out at 20 to 50%

Value of measured inhibition at 1 µM for the entry NNC(=O)CC1CCC(c2ncc(-c3ccc(NC(=O)Nc4cc(F)cc(F)c4)cc3)s2)CC1 (centres unmarked) : > 50%

Given item O=C(O)CCc1ncc(-c2ccc(NC(=O)Nc3ccccc3Cl)cc2)s1 , the value recorded as its inhibition at 1 µM is > 50%

Record CC(C)(CCc1ncc(-c2ccc(NC(=O)Nc3cc(F)c(F)cc3F)cc2)s1)C(=O)O , field inhibition at 1 µM: > 50%

Noted for O=C(Nc1ccc(-c2cnc(CNS(=O)(=O)C(F)(F)F)s2)cc1)c1ccc(C(F)(F)F)cc1 : its inhibition at 1 µM reads > 50%
